Hi there, I'd appreciate the recorded EC50 for every entry that follows.
Tested System: Beta-2 adrenergic receptor (Homo sapiens)
Sequence (P07550 whole entry): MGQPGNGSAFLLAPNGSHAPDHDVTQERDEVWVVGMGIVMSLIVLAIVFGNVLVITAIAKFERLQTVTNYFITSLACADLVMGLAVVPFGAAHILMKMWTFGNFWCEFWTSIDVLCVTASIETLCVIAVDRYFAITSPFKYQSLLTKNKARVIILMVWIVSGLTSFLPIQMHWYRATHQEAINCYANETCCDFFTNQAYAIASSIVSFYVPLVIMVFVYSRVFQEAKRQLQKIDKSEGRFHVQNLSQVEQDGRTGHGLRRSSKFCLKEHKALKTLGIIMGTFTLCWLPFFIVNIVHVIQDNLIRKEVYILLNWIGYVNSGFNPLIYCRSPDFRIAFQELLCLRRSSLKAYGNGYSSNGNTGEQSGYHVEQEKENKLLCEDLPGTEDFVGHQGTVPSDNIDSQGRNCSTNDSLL
Method Notes: beta2AR agonists driving receptor internalization, dose response, cell-based, FAP fluorogen, flow cytometry, cherry pick 1 (AID 588763)
Type: functional
Active and inactive are the calls of the source.

INPUT: // query EC50 value for entry COc1ccc(CSc2ccc(-c3nc4ccccn4c3NCc3ccccc3)cc2OC)cc1
OUTPUT: 1.32 µM (active)

INPUT: // query EC50 value for entry COc1ccc(C2=NN(C(=O)c3cccs3)C(c3ccc(OC)cc3)C2)cc1 (stereo not given)
OUTPUT: 4.84 µM (active)

INPUT: // query EC50 value for entry Cc1ncc(CN2CCCC(C(=O)Nc3ccc(-c4cccc(F)c4)cc3)C2)cn1 (stereo not given)
OUTPUT: 0.695 µM (active)

INPUT: // query EC50 value for entry CS(=O)(=O)c1ccc(C(=O)OCc2nnc(-c3ccccc3)o2)cc1[N+](=O)[O-]
OUTPUT: 19 µM (inactive)

INPUT: // query EC50 value for entry CC(C)(C)c1ccc(OCC(=O)Nc2ccc(-c3nc4cccnc4o3)cc2)cc1
OUTPUT: 0.0672 µM (active)

====

Tested System: Peroxisome proliferator-activated receptor gamma/Nuclear receptor coactivator 1 (Homo sapiens, UniProt P37231);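 note: agonist potency as compounds enhance coactivator SRC-1 recruitment to PPARgamma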
Sequence (P37231 whole entry): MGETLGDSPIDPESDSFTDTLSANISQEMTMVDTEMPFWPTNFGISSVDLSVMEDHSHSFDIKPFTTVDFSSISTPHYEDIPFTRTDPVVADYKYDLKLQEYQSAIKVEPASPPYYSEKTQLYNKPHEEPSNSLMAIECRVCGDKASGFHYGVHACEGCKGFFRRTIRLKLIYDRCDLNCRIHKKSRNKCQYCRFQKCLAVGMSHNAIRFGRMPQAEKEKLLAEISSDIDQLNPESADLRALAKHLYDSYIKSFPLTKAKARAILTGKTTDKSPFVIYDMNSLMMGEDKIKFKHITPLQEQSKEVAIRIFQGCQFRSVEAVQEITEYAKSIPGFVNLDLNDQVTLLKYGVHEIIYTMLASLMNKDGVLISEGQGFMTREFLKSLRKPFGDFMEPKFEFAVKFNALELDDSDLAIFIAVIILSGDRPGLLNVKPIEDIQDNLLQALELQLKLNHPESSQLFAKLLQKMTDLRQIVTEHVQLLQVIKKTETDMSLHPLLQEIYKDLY
Sequence (Q15788 whole entry, further chain): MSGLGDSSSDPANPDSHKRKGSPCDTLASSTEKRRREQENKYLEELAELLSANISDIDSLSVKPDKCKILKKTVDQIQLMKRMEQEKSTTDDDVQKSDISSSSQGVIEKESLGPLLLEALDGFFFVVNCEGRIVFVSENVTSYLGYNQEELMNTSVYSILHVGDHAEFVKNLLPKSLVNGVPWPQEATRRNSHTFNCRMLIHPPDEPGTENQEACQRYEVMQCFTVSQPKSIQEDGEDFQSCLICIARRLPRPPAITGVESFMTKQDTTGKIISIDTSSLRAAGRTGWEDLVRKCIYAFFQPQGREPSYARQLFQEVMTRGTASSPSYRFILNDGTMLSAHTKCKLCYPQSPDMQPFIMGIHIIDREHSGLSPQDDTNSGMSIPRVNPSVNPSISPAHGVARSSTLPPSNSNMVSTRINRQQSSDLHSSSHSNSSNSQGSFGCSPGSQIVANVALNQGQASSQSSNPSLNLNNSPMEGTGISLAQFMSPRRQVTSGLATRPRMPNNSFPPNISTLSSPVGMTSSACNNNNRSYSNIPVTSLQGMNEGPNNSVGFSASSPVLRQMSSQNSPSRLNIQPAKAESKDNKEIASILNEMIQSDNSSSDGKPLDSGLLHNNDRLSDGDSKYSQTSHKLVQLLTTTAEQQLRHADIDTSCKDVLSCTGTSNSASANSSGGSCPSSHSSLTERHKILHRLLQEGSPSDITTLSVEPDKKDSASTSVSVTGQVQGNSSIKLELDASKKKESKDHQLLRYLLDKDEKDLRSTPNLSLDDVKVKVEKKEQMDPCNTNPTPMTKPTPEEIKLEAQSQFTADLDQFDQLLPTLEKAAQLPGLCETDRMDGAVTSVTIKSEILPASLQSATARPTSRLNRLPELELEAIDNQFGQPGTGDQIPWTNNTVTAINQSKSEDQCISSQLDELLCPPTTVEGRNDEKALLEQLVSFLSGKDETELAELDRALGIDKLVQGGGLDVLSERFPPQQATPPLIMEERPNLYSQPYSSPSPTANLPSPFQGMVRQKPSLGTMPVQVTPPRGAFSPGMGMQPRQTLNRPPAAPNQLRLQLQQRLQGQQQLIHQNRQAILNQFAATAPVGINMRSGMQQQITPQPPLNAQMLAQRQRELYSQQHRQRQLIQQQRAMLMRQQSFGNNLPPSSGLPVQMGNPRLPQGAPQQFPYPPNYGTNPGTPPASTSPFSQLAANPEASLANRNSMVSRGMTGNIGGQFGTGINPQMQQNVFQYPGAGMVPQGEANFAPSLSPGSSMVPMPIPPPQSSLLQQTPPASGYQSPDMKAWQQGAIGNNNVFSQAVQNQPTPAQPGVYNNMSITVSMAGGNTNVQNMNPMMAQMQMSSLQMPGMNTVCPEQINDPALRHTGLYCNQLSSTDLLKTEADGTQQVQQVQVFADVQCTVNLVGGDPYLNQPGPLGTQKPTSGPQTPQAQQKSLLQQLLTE
Type: functional
The source made the active and inactive calls.
Hi there, I'd appreciate the recorded EC50 for every entry that follows.

INPUT: // query EC50 value for entry COc1ccc(CC(=O)NCc2nnc(SCC(=O)Nc3cccc(F)c3)n2C)cc1
OUTPUT: > 79.4 µM (not active)

INPUT: // query EC50 value for entry Cc1cc(NC(=O)CN2C(=O)NC3(CCC(C)CC3)C2=O)no1 (stereo not given)
OUTPUT: > 79.4 µM (not active)

INPUT: // query EC50 value for entry Cc1nc(SCC(=O)Nc2ccc(F)cc2)c2oc3ccccc3c2n1
OUTPUT: > 79.4 µM (not active)

INPUT: // query EC50 value for entry COc1ccc(S(=O)(=O)Nc2c(F)cccc2F)cc1
OUTPUT: > 79.4 µM (not active)

INPUT: // query EC50 value for entry COC(=O)CSc1nc2cc3c(cc2cc1C#N)OCO3
OUTPUT: 7.89 µM (active)

====

Tested System: Metabotropic glutamate receptor 3 (Rattus norvegicus)
Sequence (P31422 whole entry): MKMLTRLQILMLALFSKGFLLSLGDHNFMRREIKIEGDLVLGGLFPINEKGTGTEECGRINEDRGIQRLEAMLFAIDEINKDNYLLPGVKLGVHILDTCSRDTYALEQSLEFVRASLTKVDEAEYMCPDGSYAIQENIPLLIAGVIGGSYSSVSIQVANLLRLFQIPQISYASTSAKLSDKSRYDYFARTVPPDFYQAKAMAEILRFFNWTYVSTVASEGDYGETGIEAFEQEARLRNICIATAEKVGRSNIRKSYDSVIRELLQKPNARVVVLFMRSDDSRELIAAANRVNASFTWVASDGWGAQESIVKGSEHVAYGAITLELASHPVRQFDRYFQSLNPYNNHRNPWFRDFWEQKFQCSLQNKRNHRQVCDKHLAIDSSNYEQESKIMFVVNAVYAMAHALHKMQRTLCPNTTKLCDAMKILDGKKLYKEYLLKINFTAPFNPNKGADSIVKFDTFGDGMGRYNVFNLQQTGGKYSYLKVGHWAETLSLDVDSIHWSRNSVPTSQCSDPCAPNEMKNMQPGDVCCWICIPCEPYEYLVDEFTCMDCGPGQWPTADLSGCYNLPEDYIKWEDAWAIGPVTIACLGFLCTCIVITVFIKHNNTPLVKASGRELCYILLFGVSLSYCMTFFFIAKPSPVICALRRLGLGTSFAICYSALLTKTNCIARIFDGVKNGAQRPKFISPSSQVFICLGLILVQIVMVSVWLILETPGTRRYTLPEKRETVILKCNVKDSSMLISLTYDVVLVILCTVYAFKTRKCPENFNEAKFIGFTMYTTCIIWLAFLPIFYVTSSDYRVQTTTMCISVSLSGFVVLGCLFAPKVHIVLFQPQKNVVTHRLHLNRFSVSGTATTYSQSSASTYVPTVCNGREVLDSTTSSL
Method Notes: mGlu3 NAM potency via calcium readout, dose response, mGlu3 NAM project, TREx293 cells, Galpha15, calcium flux (AID 651840)
Property: pIC50
In textbook form, pIC50 equals minus log to base ten of the concentration in mol/L.

INPUT: // query pIC50 value for entry COc1ccc(C#Cc2ccc(C(=O)N3CCC[C@@H](O)C3)c(F)c2)cc1
OUTPUT: 6.29

====

Hi there, I'd appreciate the recorded AC50 for every entry that follows.
Tested System: Heat shock protein HSP 90-alpha (Homo sapiens, UniProt P07900)
Assay type: functional, organism-based
The source made the active and inactive calls.

INPUT: // query AC50 value for entry COc1ccc(/C=C2/CCC(CN3CCOCC3)C2=O)cc1 (stereo unspecified)
OUTPUT: 0.902 µM (active)

INPUT: // query AC50 value for entry CC1=C(C)/C(=N\OS(=O)(=O)c2ccc(C)cc2)C=CC1=O
OUTPUT: 1.61 µM (active)

INPUT: // query AC50 value for entry Oc1c(C(c2ccccc2)N2CCOCC2)ccc2ccccc12 (stereo unspecified)
OUTPUT: 7.26 µM (active)

INPUT: // query AC50 value for entry CC(=NNC(=S)N(Cc1ccccn1)Cc1ccccn1)c1cnccn1
OUTPUT: 3.3 µM (active)

INPUT: // query AC50 value for entry O=[N+]([O-])c1ccc2c(c1)-c1ccccc1C2=NO
OUTPUT: 3.93 µM (active)

INPUT: // query AC50 value for entry c1ccc(-c2nnc(-c3ccccn3)nc2NC2CCCCC2)cc1
OUTPUT: 3.99 µM (active)
